Provenance of the data: paper PMC9769804

System: SaraC (Stereum hirsutum FP-91666)
MEASUREMENT_DESCRIPTION: SPR
CONDITION: S-adenosylmethionine (16 mM, protein pre-incubation); two methyl groups, printed mG at positions 7 and 12; text calls these oligos 5mC or 6mA, so methylated base is ambiguous; SPR Biacore T200, CM5 anti-His capture, 1x PBS with 5% DMSO pH 7.5 (protein/SAM mix), oligos in 1x PBS, 25 C, 5 uL/min; analyte 0.25-4 uM (Fig. 1 legend …)
READOUT_KIND: Kd (nM)
Give bare numbers, in nM.

Data request: Which Kd value belongs to CGATCGGATTTGACGGTT [Oligo5564] ?
Data returned: 821
